Molecular target: Jak2 (UniProt O60674)
Sequence (O60674 whole entry, looked up): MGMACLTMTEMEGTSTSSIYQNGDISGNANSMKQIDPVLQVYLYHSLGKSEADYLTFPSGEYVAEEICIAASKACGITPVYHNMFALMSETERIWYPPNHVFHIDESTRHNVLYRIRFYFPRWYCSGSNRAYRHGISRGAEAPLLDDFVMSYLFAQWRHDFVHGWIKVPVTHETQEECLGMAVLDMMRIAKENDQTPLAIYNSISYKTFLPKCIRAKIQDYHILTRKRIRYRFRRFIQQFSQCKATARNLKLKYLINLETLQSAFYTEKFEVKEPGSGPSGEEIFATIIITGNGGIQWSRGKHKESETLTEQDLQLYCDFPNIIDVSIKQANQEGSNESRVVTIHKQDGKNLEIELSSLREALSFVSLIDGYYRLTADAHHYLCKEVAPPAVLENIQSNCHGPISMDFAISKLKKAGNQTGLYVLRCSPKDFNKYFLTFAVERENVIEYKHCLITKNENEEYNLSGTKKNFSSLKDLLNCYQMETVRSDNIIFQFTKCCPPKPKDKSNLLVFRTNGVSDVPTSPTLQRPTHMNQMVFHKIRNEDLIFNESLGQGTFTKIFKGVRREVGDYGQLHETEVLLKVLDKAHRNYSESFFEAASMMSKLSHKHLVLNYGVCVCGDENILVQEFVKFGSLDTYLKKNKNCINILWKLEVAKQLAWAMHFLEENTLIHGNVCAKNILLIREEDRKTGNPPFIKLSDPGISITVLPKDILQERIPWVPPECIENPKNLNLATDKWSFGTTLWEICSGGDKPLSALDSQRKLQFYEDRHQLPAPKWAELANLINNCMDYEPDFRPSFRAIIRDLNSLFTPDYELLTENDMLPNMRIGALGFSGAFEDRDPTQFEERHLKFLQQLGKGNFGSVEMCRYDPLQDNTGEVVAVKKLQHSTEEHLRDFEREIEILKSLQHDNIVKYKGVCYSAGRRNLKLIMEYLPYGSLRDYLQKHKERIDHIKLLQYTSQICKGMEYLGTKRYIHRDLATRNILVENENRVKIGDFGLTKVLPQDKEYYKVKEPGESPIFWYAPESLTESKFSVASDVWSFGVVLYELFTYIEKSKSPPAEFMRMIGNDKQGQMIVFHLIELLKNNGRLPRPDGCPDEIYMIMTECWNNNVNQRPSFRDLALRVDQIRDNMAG
Assay: phosphorylation enrichment, bacterial display (enrichment ratio); higher = better substrate or ligand; peptides without Tyr show the background;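 also: 11-residue human phosphosite peptides and single-mutation variants displayed on the E. coli surface, counted by deep sequencing, each peptide's frequency after selection divided by its frequency in the unselected input library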;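 also: frequency after pTyr selection over input frequency; kinase dosed for 20-30% of maximal phosphorylation in three min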
property-name: phosphorylation enrichment
Enter a number only.

{"biosequence": "RHLLRYLSWTV [CLCNKB_Y93_S88R]", "phosphorylation enrichment": 0.982}
{"biosequence": "FIATQYSLCPR [LBR_Y166_R169C_YF]", "phosphorylation enrichment": 1.14}
{"biosequence": "GRFCGYKSKHG [EPHA3_Y570]", "phosphorylation enrichment": 0.726}

Qu. Endpoint output: phosphorylation enrichment of IGKDLYANNVL [ACTA2_Y296_R292G] . Value?
Ans. 1.03

Qu. What measured phosphorylation enrichment goes with KYLENYYDLKK [MMP3_Y41] ?
Ans. 0.782

Qu. Given the entry QMVGMYAFSYM [AVPR2_Y124_S126F] , report its measured phosphorylation enrichment.
Ans. 1.44

Qu. Return reported phosphorylation enrichment; argument: TRLAQYDSNSK [BMX_Y216_S212R]
Ans. 0.811

Qu. What phosphorylation enrichment value was documented for this sequence, NHQFDYTFDWT [CSNK1A1_Y294_YF] ?
Ans. 1.08

Qu. Entry under review: SRIWVYNHFRC [BRCA2_Y2621_W2626C_YF] . Reported phosphorylation enrichment?
Ans. 1.19

Qu. Please look up its phosphorylation enrichment: CSRHFYQLTKL [AR_Y858_R856H]
Ans. 0.969

Qu. Sample RSRSSYTHGLN [MYCT1_Y116] — what was its phosphorylation enrichment?
Ans. 0.916

// data source = the supplement of paper PMC10065799
